- Species: Rattus norvegicus
- experimentNotes: DrugMatrix - Regimen: Daily Repeat
- Format: toxicity, organism-based, Sprague-Dawley
- Parameters: regimen Daily Repeat, gender Male, age 6-8 weeks
- setupConditions: in vivo, po, 0 mg/kg, 120 h, tissue Blood, route oral GAVAGE, dose level Control, time 5 day, vehicle 100 % WATER
Each entry below carries its recorded HEMOGLOBIN.
Answer with the number, then the unit.

Completed entries (count: 4):
# compound, reportedMeasurement
measured = [
    ("NNC(=O)c1ccncc1 [ISONIAZID]", "13.72 G/DL"),
    ("Clc1ccc(C(c2ccccc2Cl)C(Cl)Cl)cc1 (centres undefined) [MITOTANE]", "14.48 G/DL"),
    ("CN1CCN(C(=O)OC2c3nccnc3C(=O)N2c2ccc(Cl)cn2)CC1 (centres undefined) [ZOPICLONE]", "14.03 G/DL"),
    ("CC1(C)S[C@@H]2[C@H](NC(=O)[C@H](N)c3ccc(O)cc3)C(=O)N2[C@H]1C(=O)O [AMOXICILLIN]", "13.28 G/DL"),
]

HEMOGLOBIN reading for CC(CCc1ccccc1)NCC(O)c1ccc(O)c(C(N)=O)c1 (centres undefined) [LABETALOL] : 14.1 G/DL

The measured HEMOGLOBIN associated with Cn1cnc([N+](=O)[O-])c1Sc1ncnc2nc[nH]c12 [AZATHIOPRINE] reads 13.37 G/DL

Consider CC(C)(S)[C@@H](N)C(=O)O [PENICILLAMINE] . Its measured HEMOGLOBIN is 13.72 G/DL

COc1ccc(C(CN(C)C)C2(O)CCCCC2)cc1 (centres undefined) [VENLAFAXINE] has a reported HEMOGLOBIN of 13.93 G/DL

Measured HEMOGLOBIN, CNCCC=C1c2ccccc2CCc2ccccc21 [NORTRIPTYLINE] : 13.9 G/DL

The reported HEMOGLOBIN of the compound COc1cccc(C2(O)CCCCC2CN(C)C)c1 (centres undefined) [TRAMADOL] was 13.17 G/DL

The compound identified as Nc1ccc(S(=O)(=O)Nc2ccnn2-c2ccccc2)cc1 [SULFAPHENAZOLE] registered its HEMOGLOBIN at 14.07 G/DL

GET /value?item= COc1cc2c(N3CCN(C(=O)Nc4ccc(OC(C)C)cc4)CC3)ncnc2cc1OCCCN1CCCCC1 [TANDUTINIB] &field=HEMOGLOBIN returns 14.23 G/DL

NCC1(CC(=O)O)CCCCC1 [GABAPENTIN] has a reported HEMOGLOBIN of 14.07 G/DL

// HEMOGLOBIN value for Fc1ccc([C@@H]2CCNC[C@H]2COc2ccc3c(c2)OCO3)cc1 [PAROXETINE] : 13.17 G/DL

Entry CN1CCC[C@H]1c1cccnc1 [NICOTINE] — recorded HEMOGLOBIN = 14.22 G/DL

Given item O=C1NC(=O)C(c2ccccc2)(c2ccccc2)N1 [PHENYTOIN] , the value recorded as its HEMOGLOBIN is 13.9 G/DL

Memo: C[C@]12Cc3c[nH]nc3C[C@@H]1CC[C@@H]1[C@@H]2CC[C@@]2(C)[C@H]1CC[C@]2(C)O [STANOZOLOL] , reported HEMOGLOBIN: 13.17 G/DL

Notebook: Cc1cc(NS(=O)(=O)c2ccc(N)cc2)no1 [SULFAMETHOXAZOLE] , HEMOGLOBIN read as 13.93 G/DL

Input CC1COc2c(N3CCN(C)CC3)c(F)cc3c(=O)c(C(=O)O)cn1c23 (centres undefined) [OFLOXACIN] . Output HEMOGLOBIN: 14.22 G/DL
